These entries and their values trace back to ChEMBL document CHEMBL4834475.

system: U-251; test: Antiproliferative activity against human U-251 cells assessed as reduction in cell viability measured after 72 hrs by MTT assay; assay type: functional, cell-based; details: U-251, 72 h
READOUT_KIND: IC50 (nM)
Entry rule: numbers only, all in nM.

**Query** Using the record for O=C(/C=C/c1ccccc1)O[C@H](c1ccccc1)[C@@H]1O[C@@H]2CC(=O)O[C@@H]2[C@@H]1O , report its IC50.
**Result** 1340

**Query** Given the compound O=C1C[C@H]2O[C@@H](CI)[C@@H](O)[C@H]2O1 , what is its reported IC50?
**Result** 529000

**Query** Tell me the measured IC50 of COc1cccc2c1C(=O)c1c(O)c3c(c(O)c1C2=O)C[C@@](O)(C(=O)CO)C[C@@H]3O[C@H]1C[C@H](N)[C@H](O)[C@H](C)O1 , please.
**Result** 106
